Where these numbers come from: patent US7202255B2

Counter-ions that a name gives are not always drawn.
Answer each item with its documented melting point.

Below are worked cases with known answers.
# Compound, melting point
data = [
    ("CN(C)CCn1c(=O)c2c3oc4ccccc4oc3c3[nH]c4cc(O)ccc4c3c2c1=O [Example 24]", "> 360 °C"),
    ("CN(C)CCn1c(=O)c2c3oc4ccccc4oc3c3[nH]c4ccc(O)cc4c3c2c1=O [Example 20]", "> 360 °C"),
    ("COc1ccccc1Oc1cc2c(c3c1C(=O)N(C)C3=O)c1ccccc1n2C(=O)OC(C)(C)C [Example 34]", "> 333 °C"),
    ("CN(C)CCn1c(=O)c2c3oc4ccccc4oc3c3[nH]c4cc(F)ccc4c3c2c1=O [Example 14]", "301 °C (dec.)"),
    ("CN(C)CCn1c(=O)c2c3oc4ccccc4oc3c3[nH]c4ccccc4c3c2c1=O [Example 7]", "298 °C (dec.)"),
    ("Cn1c(=O)c2c3oc4ccccc4oc3c3c(c4ccccc4n3C(=O)OC(C)(C)C)c2c1=O [Example 5]", "189 °C (dec.)"),
    ("CC(C)(C)OC(=O)n1c2ccc(OCc3ccccc3)cc2c2c3c(=O)[nH]c(=O)c3c3oc4ccccc4oc3c21 [Example 25]", "> 304 °C"),
    ("CN1C(=O)c2c(Oc3ccccc3O)cc3[nH]c4ccc(O)cc4c3c2C1=O [Example 32]", "277 °C (dec.)"),
    ("CC(C)(C)OC(=O)n1c2cc(OCc3ccccc3)ccc2c2c3c(=O)[nH]c(=O)c3c3oc4ccccc4oc3c21 [Example 27]", "199 °C"),
    ("CN(C)CCn1c(=O)c2c3oc4cccnc4[nH]c3c3oc4ccccc4oc3c2c1=O [Example 4]", "150 °C (dec.)"),
]

Hi! Can you tell me melting point for each of these compounds?
1. CN(C)CCn1c(=O)c2c3oc4ccccc4oc3c3[nH]c4ccc(OCc5ccccc5)cc4c3c2c1=O [Example 19]
2. CN1C(=O)c2c(Oc3ccccc3O)cc3c(c2C1=O)c1ccc(OCc2ccccc2)cc1n3C(=O)OC(C)(C)C [Example 39]
3. CN(C)CCn1c(=O)c2c3oc4ccccc4oc3c3[nH]c4cc(OCc5ccccc5)ccc4c3c2c1=O [Example 23]
4. CN1C(=O)c2c(Oc3ccccc3O)cc3c(c2C1=O)c1ccccc1n3C(=O)OC(C)(C)C [Example 33]
5. Cn1c(=O)c2c3oc4ccccc4oc3c3c(oc4cccnc4n3C(=O)Oc3ccccc3)c2c1=O [Example 3]
6. Cn1c(=O)c2c3oc4ccccc4oc3c3[nH]c4ccc(O)cc4c3c2c1=O [Example 18]

1: 254 °C (dec.); 2: 191 °C; 3: 262 °C (dec.); 4: 182 °C (dec.); 5: > 250 °C; 6: > 350 °C

Each of the following entries comes with a recorded value; kindly state melting point for each.
1. CN1C(=O)c2c(Oc3ccccc3OS(=O)(=O)C(F)(F)F)cc3c(c2C1=O)c1ccccc1n3C(=O)OC(C)(C)C [Example 37]
2. Cn1c(=O)c2c3oc4ccccc4oc3c3[nH]c4ccc(F)cc4c3c2c1=O [Example 11]
3. CN1C(=O)c2c(Oc3ccccc3OS(=O)(=O)C(F)(F)F)cc3[nH]c4ccccc4c3c2C1=O (as salt: methanesulphonate) [Example 38]
4. CN(C)CCn1c(=O)c2c3oc4ccccc4[nH]c3c3oc4ccccc4oc3c2c1=O [Example 2]
5. O=c1[nH]c(=O)c2c1c1oc3ccccc3oc1c1[nH]c3cc(O)ccc3c12 [Example 28]
6. CN(C)CCn1c(=O)c2c3oc4ccccc4oc3c3[nH]c4ccc(F)cc4c3c2c1=O [Example 12]

182 °C
> 355 °C
214 °C
150 °C
> 340 °C
337 °C (dec.)

Record Cn1c(=O)c2c3oc4ccccc4oc3c3[nH]c4cc(F)ccc4c3c2c1=O [Example 13] , field melting point: > 360 °C
